From: PubChem BioAssay (Tox21)

# assay.summary: Nuclear factor erythroid 2-related factor 2/antioxidant responsive element (Nrf2/ARE) small molecule agonists: qHTS cell viability counter screen in human keratinocytes (AID 1919968); further: nearly all actives have a fitted effect of over 55% in size; further: potency means the concentration at half of the fitted maximal effect
# details: KeratinoSens HaCaT ARE cells viability, CellTiter-Fluor, 24 h; series mostly up to 92.4 µM
Records with an inconclusive call do not appear. Calls of active or inactive are those of the source. The call rests on the fitted dose curve; in most records, active means well fitted cell-killing curve with a large enough effect in the repeat runs; inconclusive means weak or mixed curves, or effect the other way; inactive means flat fitted curve, though single readings scatter.
property.name: Potency

Answered examples (4):
molecule: COC1=CC(=O)O[C@@H](/C=C/c2ccc3c(c2)OCO3)C1
Potency: inactive
--
molecule: Cc1ccc(N(SC(F)(Cl)Cl)S(=O)(=O)N(C)C)cc1
Potency: 27.3 µM (active)
--
molecule: FC(F)(F)c1cccc(C2=CCN(CCc3ccc4ccccc4c3)CC2)c1
Potency: inactive
--
molecule: SCc1ccccc1
Potency: inactive

// switching to the query molecule
Can you share its Potency? I mean this molecule: "O=C(Nc1ccccc1)Nc1cnns1"
inactive
